Values from the RNAGym collection of RNA variant scans (doi:10.7554/elife.80360)

B1: CPEB3 Ribozyme (parent)
chain: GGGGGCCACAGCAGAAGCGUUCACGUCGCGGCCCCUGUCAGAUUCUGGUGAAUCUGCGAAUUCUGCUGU

Variants of: B1
Experiment: self-cleavage, relative activity (ratio to wild type); higher = more cleavage; co-transcriptional
Observable: self-cleavage
Give the value as a plain number.

As a guide, the following entries are already answered.
{"columns": ["Mutation List", "Reported Result"],
 "data": [
  ["G11U U44C", 0.539],
  ["G1A U20G", 0.0728],
  ["C39G C54U", 0.888],
  ["C6A C22U", 0.0847],
  ["G31A G48U", 0.931]
]}

Per the record, C33U U49G has self-cleavage of 0.996

Per the record, C18G G65A has self-cleavage of 0.131

Per the record, U53C G58A has self-cleavage of 0.85

Per the record, G19A A42U has self-cleavage of 0.191

Per the record, A8C A42U has self-cleavage of 0.918

Per the record, A59U U69C has self-cleavage of 1.02

Per the record, G3U C33A has self-cleavage of 0.102

Per the record, G3C C18U has self-cleavage of 0.0442

Per the record, U53A U55A has self-cleavage of 0.354

Per the record, C34G A40C has self-cleavage of 0.326

Per the record, C22G C54G has self-cleavage of 0.125

Per the record, G3U U46C has self-cleavage of 0.105

Per the record, G2U C22A has self-cleavage of 0.0323

Per the record, A51U A52G has self-cleavage of 0.982

Per the record, U43A U44C has self-cleavage of 0.987

Per the record, U20C U61C has self-cleavage of 0.182
